Tested on: CEM cells HIV-1 protection, formazan growth assay
Method: NCI AIDS Antiviral Assay
Condition context: measured here: growth of uninfected CEM cells
Reported endpoint: pIC50
pIC50 here is simply -log10 of the concentration when that concentration is written in mol/L.

The following compounds have reported results that may help.
CCCCC(=S)SSC(C)(C)C ... 4.26
C1=C[C@]2(CCC13OCCO3)COc1ccccc12 ... 4.73

[Q] Provide pIC50 value for the following compound: `COc1cc2c(cc1OC)-c1cc3ccccc3c(=O)n1CCC2`
[A] 5.55

----------
System: CEM cells HIV-1 protection, formazan growth assay
Method: NCI AIDS Antiviral Assay
Condition context: measured here: growth of uninfected CEM cells
Reported endpoint: IC50

The following molecules have reported results that may help.
CC12COC3(C)CCC(C)(OC1)N23 (stereo not drawn) ... > 490 µM
O=C(O)c1cccc(C(=O)O)c1-c1c(C(=O)O)cccc1C(=O)O ... > 200 µM

API: the following record is the query input.
[Q] Provide IC50 value for the following molecule: CC1=C2C(c3ccccc3)(c3ccccc3)C3C=CC2(C=N3)N(C(=O)NC2CCCCC2)C1=O (stereo not drawn)
[A] > 11.5 µM

// data source = PubChem BioAssay AID179
